Data provenance: PubChem BioAssay (NCI)

Consider the following compounds; for each one, report its growth.
System: IGROV1 ovarian
Assay Comment: NCI-60 one-dose screen, 48 h (100 = growth as untreated, 0 = no growth, -100 = all killed)
Run Parameters: 10 µM
The panel holds about 83,000 compounds, 20% with a hit somewhere; the sample as a whole holds those more often.
One number for each entry, in %.

Consider the following illustrative entries.
[[record]]
compound = "Cc1ccc2oc(=O)c3c(c2c1)OC(N)=C(C#N)C3c1ccco1 (configuration not stated)"
measurement_units = "%"
endpoint_result = 104

[[record]]
compound = "CC1CC=CCC12C(=O)NC(=S)NC2=O (configuration not stated)"
measurement_units = "%"
endpoint_result = 117

[[record]]
compound = "CC1=C(SCCC(=O)OCC(=O)NCCC[Te]c2ccccc2)C(=O)c2ccccc2C1=O"
measurement_units = "%"
endpoint_result = -35.5

[[record]]
compound = "O=C(CC1(O)C(=O)Nc2ccc(F)cc21)c1ccc(C(=O)NCC2CCC3(CC2)OOC2(CCCCC2)OO3)cc1 (configuration not stated)"
measurement_units = "%"
endpoint_result = 3.82

[[record]]
compound = "COc1cc(C2=NN(c3ccccc3)C(c3sc(N(CCCl)CCCl)nc3Cl)C2)cc(OC)c1OC (configuration not stated)"
measurement_units = "%"
endpoint_result = 106


Lab note: each compound below needs its growth filled in.
1. O=CN1N=C(c2ccc3c(c2)OCO3)CC1c1sc(N(CCCl)CCCl)nc1Cl (configuration not stated)
2. c1ccc2nc(OCCN3CC3)ccc2c1
3. CCCCCCCCCCCCOc1ccc(C(=O)Oc2ccc(CSP3(=O)OCC4OC(n5cnc6c(N)ncnc65)C(F)C4OP(=O)(O)OCC4OC(n5ccc(=O)[nH]c5=O)C(F)C4O3)cc2)cc1 (configuration not stated)

1. 93.2
2. 35.1
3. 97
